# abundance fitness per record follows
B1: Kinesin-like protein KIF16B, residues 1213 to 1273; numbered along this chain, Q96L93 (parent)
chain: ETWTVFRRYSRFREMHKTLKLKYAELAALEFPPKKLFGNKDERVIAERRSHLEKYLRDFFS

# Variants of: B1
# test description: abundance fitness (aPCA) (normalised: wild type 0, dead -1); higher = more abundant; growth selection in yeast, the domain comes from the species named
# condition context: Homo sapiens
Please give only the number in your answer, with no unit.

entry sequence: ETWTVFRRYSRFREMHKTLKLKYAELAALEWPPKKLFGNKDERVIAERRSHLEKYLRDFFS
observed property: abundance fitness
obs value: 0.194
--
entry sequence: ETWTVFRRYSRFREMHKTLKLKYAELAALEFPPKKLFGNKDERVIAERRSHNEKYLRDFFS
observed property: abundance fitness
obs value: -0.642
--
entry sequence: ETWTVFRRYSRFREMHKTLKLKYAELAALEFPPKKLFGNKDERVIAEVRSHLEKYLRDFFS
observed property: abundance fitness
obs value: -0.05

Req: Annotate the variant ETWTVFRRYSRFREMHKTLKLKYAELAALEFPPKKLFKNKDERVIAERRSHLEKYLRDFFS with its measured abundance fitness.
Resp: -0.346

Req: Answer with reported abundance fitness of ETWTVFRRYSRFREMHKTLKLKYAELAAEEFPPKKLFGNKDERVIAERRSHLEKYLRDFFS
Resp: -0.883

Req: Annotate the variant ETWTVFRRYSRFREMHKMLKLKYAELAALEFPPKKLFGNKDERVIAERRSHLEKYLRDFFS with its measured abundance fitness.
Resp: -0.06

Req: Report abundance fitness, nothing else, for this variant: ETWTVFRRYSRFREMHKTLKLKYAELAALEFPPKKLFGNKDERVIAERRSHLEKYLRDSFS
Resp: -0.994

Req: Return reported abundance fitness. Input variant: ETWTVFRRYSRFREMHKTLKSKYAELAALEFPPKKLFGNKDERVIAERRSHLEKYLRDFFS
Resp: 0.254

Req: State, in one line, measured abundance fitness of ETWTVFRRYSRFREMHKTLKLKYAELAALEQPPKKLFGNKDERVIAERRSHLEKYLRDFFS
Resp: -0.716
